Reported apparent KD of K4 kissing-loop reporter values for a set of sequences
# Tested on: K4 kissing-loop RNA reporter
# assay info: apparent KD of K4 kissing-loop reporter; higher = weaker reporter binding
# measurement context: Eterna round: R107; input ligand: FMN 200 uM
measured parameter: apparent KD of K4 kissing-loop reporter (nM)

[[record]]
sequence_data = "GUAGGAUGGUGCGAUACCAGACCUGCAGUGAUGUUGCGCCAUAGUGAGUGAUGUUCACCGGUCCCUUGGCAGCGCGUCCAUAAAG [Same State Theophylline B GF 17]"
numeric_result = 1060

[[record]]
sequence_data = "UGUGUUGUUGUGAUGUUUAGUGUUGUUGGGCAGGAUAUCGUAGAGGCGAGAAGGGCUUGUGUGCUGUAUGAGUGAUGUUUGUAGG [xrrxmullin]"
numeric_result = 372

[[record]]
sequence_data = "UUUCGUUUCGUCUGACAUAAUUGGCUAGAAGGAGCGGUAAAAUUACCAGGUAGGUCGCUAGCCCAGUGAUGUUGGGACUAGCAUA [Onqudi]"
numeric_result = 148

[[record]]
sequence_data = "AGGCACGAGCAAGGAUAUCGAGUAGAGUGAUGUUCUGCCUGGGUUGGCGCGUAAGGGCCUUCCCAGCGAGAAGGUGCUCGUGCCU [#2 Same State - FMN A Attempt #12 (HarryS)]"
numeric_result = 253

[[record]]
sequence_data = "GUUUCUUGGAAACAAGGACCGCUAACCGAAGGAGCGAGUGAAAACUCAGGUAGGUCGCGGUAGCGGAGUGAUGUUCCGCGUUUAC [Excluson Arginine A GF 15]"
numeric_result = 91.3

[[record]]
sequence_data = "UCCUGCAAUCGGCCACGAAAGUGGAUGGAUACCAGAGUCGAAAGACUCCCUUGGCAGCCAGUGAUGUUGGAAGCAGGUAAAUAAA"
numeric_result = 838

[[record]]
sequence_data = "CGCAAGCAGCUAGUGAUGUUGGCCGCCUUGCGAGGACCGGUACGGCCGCCACUCGGAGGCGGCUACUGAUAAACCGUCUAACGGA [KL-XTryp-A10]"
numeric_result = 87.5

[[record]]
sequence_data = "AAUUUAUAUUUGUUCUUCAAAUGUUCAGAAGGAGCGUGAAUUAUCACAGGUAGGUCGCUGGGCUAGUGAUGUUGGCUAUAUACUA [whbob_Ex_Arginine_A_2t126]"
numeric_result = 168

[[record]]
sequence_data = "UAGGAGUGAUGUUCCAUAUCUUGAGCCGAAGGAGCGCCUUUAUAGGCAGGUAGGUCGCGGCAGAAGGUACCAGUGAUGUUGGAAA [Same State Arginine A GF6]"
numeric_result = 147

[[record]]
sequence_data = "UUAUUAAUAACAGAUACCAGUCCAGAAUGAAAACUAUAGUGAUGUUAUAAUAAAGGGAAGGACCCUUGGCAGCUGUAAUAUAUUU [AstrosSSTheB#2]"
numeric_result = 525

[[record]]
sequence_data = "GUGUGGAUCCGAAGGAGCGUCCGCAAUCCAGUGAUGUUGGGUGUUGGUUUUAGUAGACGAGGACAGGUAGGUCGCGGAUUUACAA [Same State Arginie B GF 23]"
numeric_result = 133

[[record]]
sequence_data = "GCCAGUGAUGUUGGCAUUUCGAGCCAUGAAGGAGCGCACGGAAGUGCAGGUAGGUCGCAUGGUACUUAAGAUAUUAUCCUAAGUA [Atceis]"
numeric_result = 210


====

# System: MS2 coat protein
# assay info: apparent KD of MS2 coat protein; designed switch direction (-1 OFF switch, 1 ON switch): -1; higher = weaker reporter binding
# measurement context: Eterna round: R95; input ligand: FMN 200 uM
Reported apparent KD of MS2 coat protein values for a set of sequences
measured parameter: apparent KD of MS2 coat protein (nM)

[[record]]
sequence_data = "CCUCUGUAAGGAUAUACGGAGACCACUGGAAUCAGUGGAAAGUAGAAGGUACAUGAGGAUCACCCAUGUGAGAA [Laveatisce] (puzzle: Exclusion 4)"
target_desc = "MS2 coat protein"
numeric_result = 36.5

[[record]]
sequence_data = "AGUAGGUCUACCUUGGUGGAUCUGCAUUUAUGCAAGUGUACAUGAGGAUCACCCAUGUCCUCAUUUGCUCGUCUUAU [JL turnoff v2 99.26] (puzzle: Sensor v3, turn-off variant 2)"
target_desc = "MS2 coat protein"
numeric_result = 95

[[record]]
sequence_data = "CCAGGCGUCUUUGCUCGUCUUAUUUGGAGAUGACUGUUAACAUGAGGAUCACCCAUGUGUGUGGGAGCGUUGCAGUC [JR_SV3TOV2_Sub021] (puzzle: Sensor v3, turn-off variant 2)"
target_desc = "MS2 coat protein"
numeric_result = 580

[[record]]
sequence_data = "UACCGGCGGACCGAGGCUUUUUGCUCGUCUUAUACUACAACAUGAGGAUCACCCAUGUGGUGGUGGUCCGUUGUAGU [JL ViennaUCT Bitein mod 5] (puzzle: Sensor v3, turn-off variant 2)"
target_desc = "MS2 coat protein"
numeric_result = 21.7

[[record]]
sequence_data = "CCAUGUUAGCAGGAUAUGCAAUAAAUCUUUUAUGCAGAAGGGCUUACAUGAGGAUCACCCAUGUAUUAAGUCAA [JR_E6_Sub078] (puzzle: Exclusion 6)"
target_desc = "MS2 coat protein"
numeric_result = 118

[[record]]
sequence_data = "AGAAAGGCAGGAUAUCGAUAAUAAAACAUGAGGAUCACCCAUGUGAGGCCGCGUGUAACUCGAGAAGGGCUACACG [Biarquma] (puzzle: Exclusion 5)"
target_desc = "MS2 coat protein"
numeric_result = 16.1

[[record]]
sequence_data = "AAAACCUCUGUCAGGAUAUCCAUGCGUCCAAAAGCGGAGAAGGGACAUGAGGAUCACCCAUGUUAGCAAAAUCA [Ceenxequ] (puzzle: Brourd's mod of Exclusion 4)"
target_desc = "MS2 coat protein"
numeric_result = 119

[[record]]
sequence_data = "ACAAGCUCUUUGCAACUUAGUUUUGUUGCUUCGUAGGUAACAUGAGGAUCACCCAUGUAAGAGUGAUGUCGUCUUAU [JR_SV3TOV2_Sub085] (puzzle: Sensor v3, turn-off variant 2)"
target_desc = "MS2 coat protein"
numeric_result = 65.8

[[record]]
sequence_data = "AAGUAUAGAGGAUAUAGUGAGUACUACAUGAGGAUCACCCAUGUUCUUCGAAACGUAUUUCUAGAAGGCUGAUAAA [EX-5 Malc#22] (puzzle: Exclusion 5)"
target_desc = "MS2 coat protein"
numeric_result = 35.3

[[record]]
sequence_data = "AGUACUAACACGGAAGUGUUAGUACUAUAAGCUUGUGUUACAUGAGGAUCACCCAUGUCCUCAUAAGCUCGUCUUAU [Mat - Sensor v3 - Turn-off var 2 - D69] (puzzle: Sensor v3, turn-off variant 2)"
target_desc = "MS2 coat protein"
numeric_result = 94.5


====

# System: K4 kissing-loop RNA reporter;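 further: bound reporter read as fluorescence of individual clusters on recovered sequencing chips by microscopy, with normalized cluster intensities fitted with a binding model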
# assay info: apparent KD of K4 kissing-loop reporter; higher = weaker reporter binding
# measurement context: Eterna round: R107; input ligand: tryptophan 2.4 mM
Reported apparent KD of K4 kissing-loop reporter values for a set of sequences
measured parameter: apparent KD of K4 kissing-loop reporter (nM)

[[record]]
sequence_data = "CUCGAGUGAUGUUCGAUUAUUUAUACAGAUACCAGUGAAUUUUAACACCCUUGGCAGCUGGUAGUAUCUUUGUAAUUUUAACUAG [JR_ExcTheophyA_Sub003]"
target_desc = "K4 kissing-loop RNA reporter"
numeric_result = 111

[[record]]
sequence_data = "AAUUUAUAUUUGUUCUUCAAAUGUUCAGAAGGAGCGUGAAUUAUCACAGGUAGGUCGCUGGGCUAGUGAUGUUGGCUAUAUACUA [whbob_Ex_Arginine_A_2t126]"
target_desc = "K4 kissing-loop RNA reporter"
numeric_result = 137

[[record]]
sequence_data = "AAGUAGCUCUCGGCCGCCACUCCUCAGUGAUGUUGAGAUAUUAAGAGCCAAUUGGCUCAUAUAAAGAGGACCGGGAGAGCUACAA [AK4 SS Tryptophan B]"
target_desc = "K4 kissing-loop RNA reporter"
numeric_result = 128

[[record]]
sequence_data = "CUGACCAACAGCGAUACCAGCGUGGAGUGAUGUUCCCUGGUCCGGGCUGAUGUUCCCUUGCGCCCUUGGCAGCGCAGAAGCAGGA [Exclusion Theophylline B GF 12]"
target_desc = "K4 kissing-loop RNA reporter"
numeric_result = 281

[[record]]
sequence_data = "CUAACGGUACGAGUGAUGUUCAGCAAGGAUACCAGCGGACAGUCACGCCCUUGGCAGCCUAGUUUCUACCCGUCGGAAUUUCUUA [theeternabot_sameState_KL_Theo_A_2]"
target_desc = "K4 kissing-loop RNA reporter"
numeric_result = 527

[[record]]
sequence_data = "GCCUAGCAGGGAAGGAGCGCCAUAUAAUUAAAAGUUAAUUAAUGAGUGAUGUUCAAAUAAUGGCAGGUAGGUCGCCCUGCUAGGC [KL-SSArg B9]"
target_desc = "K4 kissing-loop RNA reporter"
numeric_result = 323

[[record]]
sequence_data = "GCAGUCAAUCGACCACGAAAGUGGAUGGAUACCAGAGUCGAAAGACUCCCUUGGCAGCCAGUGAUGUUGGAAGACUGCAAUAAAA [#SwitchBubble 16 #K4Late]"
target_desc = "K4 kissing-loop RNA reporter"
numeric_result = 468

[[record]]
sequence_data = "AAAAUAAACCAGUGAUGUUGGUGUCCAGAUACCAGCGACAAAAGUCGCCCUUGGCAGCUGUGGACGUACAAAAUAAGUACGUCCU [MatMod 1 - Jieux - Same State - Theophylline A]"
target_desc = "K4 kissing-loop RNA reporter"
numeric_result = 316

[[record]]
sequence_data = "CCCGUGGGUUCGAGAGGGCUUGUGGGAAGUAAGGAUAUUUAGGGAGAAAGAAGGUACUAUAGAAUAUAGUGAUGUUAUAUAUGGG [#07 K4 FMN A Same State]"
target_desc = "K4 kissing-loop RNA reporter"
numeric_result = 203

[[record]]
sequence_data = "CGAGUGAUGUUCGUUUUUUACUCUGUUUGACAGGAUAUGCGGAAACGCAGAAGGGUCACCUUUGAGUUAAACGGAGUUAUUUUUU [Ex FMN A 20]"
target_desc = "K4 kissing-loop RNA reporter"
numeric_result = 320

[[record]]
sequence_data = "GUAUCAGUGAUGUUGGUAGGCGAGCGGGAUACCAGCCAAGACUCAGGCCCUUGGCAGCCCACAUAUCCCACGUAGAUAGUAGCUC [Same State - Theophylline A (Freestyle 15)]"
target_desc = "K4 kissing-loop RNA reporter"
numeric_result = 133


Measured values drawn from the supplement of paper PMC9170038 for this set.
